Biological target: IRAK4 (Homo sapiens)
Construct: endogenous in cells; host or cells: OCI-LY10
Sequence (Q9NWZ3 1-460): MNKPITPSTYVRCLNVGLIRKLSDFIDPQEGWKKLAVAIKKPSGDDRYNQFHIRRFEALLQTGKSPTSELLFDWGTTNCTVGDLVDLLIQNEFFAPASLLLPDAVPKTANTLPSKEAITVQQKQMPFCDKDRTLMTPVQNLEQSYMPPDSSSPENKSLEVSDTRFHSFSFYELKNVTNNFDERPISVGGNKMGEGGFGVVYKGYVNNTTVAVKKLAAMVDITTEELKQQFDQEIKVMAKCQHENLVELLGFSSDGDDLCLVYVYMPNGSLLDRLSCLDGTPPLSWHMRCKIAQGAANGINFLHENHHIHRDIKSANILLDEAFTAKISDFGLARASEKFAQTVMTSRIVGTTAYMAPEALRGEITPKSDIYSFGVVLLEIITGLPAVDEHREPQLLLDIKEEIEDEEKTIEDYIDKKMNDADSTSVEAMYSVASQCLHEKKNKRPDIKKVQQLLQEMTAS
Experiment: IRAK4 degradation in OCI-LY10 (MSD)
Format: cell-based
Conditions: OCI-LY10 cells, 4 hrs incubation; read-out: IRAK4 MSD degradation in OCI-LY10 at 4 hrs: Average external-Abs DC50
assay.endpoint: DC50

Completed entries (count: 3):
| compound | DC50 |
| --- | --- |
| COCC(=O)N1CCCc2cc(OCC(=O)NCCCCCN(C)C[C@H]3CC[C@H](n4cc(NC(=O)c5coc(-c6ccnc(NCC7CC7)c6)n5)c(C(F)F)n4)CC3)ccc21 [I-9] | > 1000 nM |
| CN(CCCCOc1ccc(Oc2ccc(N(Cc3ccccc3)C(=O)CCl)cc2)cc1)C[C@H]1CC[C@H](n2cc(NC(=O)c3coc(-c4ccnc(NCC5CC5)c4)n3)c(C(F)F)n2)CC1 [I-5] | > 1000 nM |
| CN(CCCCCCCCOc1ccc(Oc2ccc(N(Cc3ccccc3)C(=O)CCl)cc2)cc1)C[C@H]1CC[C@H](n2cc(NC(=O)c3coc(-c4ccnc(NCC5CC5)c4)n3)c(C(F)F)n2)CC1 [I-7] | > 1000 nM |

INPUT: Recall and state the measured DC50 for CN(CCCCCCCCCCOc1ccc(Oc2ccc(N(Cc3ccccc3)C(=O)CCl)cc2)cc1)C[C@H]1CC[C@H](n2cc(NC(=O)c3coc(-c4ccnc(NCC5CC5)c4)n3)c(C(F)F)n2)CC1 [I-8] .
OUTPUT: > 1000 nM

INPUT: Recall and state the measured DC50 for CN(CCCCCNC(=O)COc1ccc2c(c1)CCCN2C(=O)CCl)C[C@H]1CC[C@H](n2cc(NC(=O)c3coc(-c4ccnc(NCC5CC5)c4)n3)c(C(F)F)n2)CC1 [I-2] .
OUTPUT: > 1000 nM
